Consider the following binders and their measured EC50 readings.
# targetOfAssay: Claudin 18.2 (CLDN18.2), expressed on CHOS-CLDN 18.2 / HEK293-CLDN 18.2 / HCC827-CLDN 18.2 cells (human, UniProt P56856 1-261)
# methodDescription: cell ELISA
Provide the reading as a plain figure in µg/mL.

INSERT INTO results (binder, recordednumber) VALUES
  ('QP14451441 (antibody, V domains shown) VH: QVQLVQSGAEVKKPGASVKVSCKASGYAFSSYWMNWVRQAPGQGLEWIGQIYPGNGDTTYNGKFKGRVTMTADKSTSTVYMELSSLRSEDTAVYFCARFVKGNAMDYWGQGTLVTVSS VL: DIVMTQSPDSLAVSLGERATISCKSSQSLLNSGNQKNYLTWYQQKPGQPPKLLIYWASTRESGVPDRFSGSGSGIDFTLTISSVQAEDVAVYYCQNAYSYPFTFGQGTKLEIK', 0.134);

For reference, reported EC50 for QP14431441 (antibody, V domains shown) VH: QVQLVQSGAEVKKPGASVKVSCKASGYAFSSYWMNWVRQAPGQGLEWMGQIYPGNGDTTYNGKFKGRVTMTRDTSTSTVYMELSSLRSEDTAVYYCARFVKGNAMDYWGQGTLVTVSS VL: DIVMTQSPDSLAVSLGERATISCKSSQSLLNSGNQKNYLTWYQQKPGQPPKLLIYWASTRESGVPDRFSGSGSGIDFTLTISSVQAEDVAVYYCQNAYSYPFTFGQGTKLEIK stands at 0.159

Lab note: QP14561455 (antibody, V domains shown) VH: QVQLVQSGAEVKKPGASVKVSCKASGYTFTNYFVHWVRQAPGQGLEWMGYINPYNDDTKYNEKFKGRVTMTRDTSTSTVYMELSSLRSEDTAVYYCLSLRFFAYWGQGTLVTVSS VL: DIVMTQSPDSLAVSLGERATISCKSSQSLLNSGNQKNYLTWYQQKPGQAPKLLIYWASTRESGVPDRFIGSGSGTDFTLTISSVQAEDVAVYFCQNDYSYPLTFGGGTKVEIK gave EC50 of 0.246

Hey, just so you know, these numbers are from patent US20230183352A1.
